Overview of reported pIC50 across a group of compounds:
Test system: MALME-3M multicell spheroids, viability
measurement.description: Anticancer human tumor MALME-3M cell line growth inhibition [TAK];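 note: spheroids exposed to drugs for seven days before readout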
reported.conditions: curve of first compound; second compound 9.49 µM
Description: Combinatorial screen of targeted agents with TAK-243 and ipatasertib in multi-cell type tumor spheroids […] Compounds. […] If the clinical Cmax for an agent had not been determined, the highest concentration tested was 10 microM. NCI60 Cell Culture. […] The optimal seeding densities for each of the cell lines at each time point assessed were determined prior to performing the concentration response studies. […]
Scale for pIC50: -log10 of concentration given in mol/L; no unit attached.

Cn1cnc2c(F)c(Nc3ccc(Br)cc3Cl)c(C(=O)NOCCO)cc21 + CC(C)NCC(C(=O)N1CCN(c2ncnc3c2C(C)CC3O)CC1)c1ccc(Cl)cc1 ... 7.76

# ---- query compound ----
Form: Entry = CC(C)CC(NC(=O)CNC(=O)c1cc(Cl)ccc1Cl)B1OC(=O)CC(CC(=O)O)(C(=O)O)O1 (stereo not drawn) + CC(C)NCC(C(=O)N1CCN(c2ncnc3c2C(C)CC3O)CC1)c1ccc(Cl)cc1 | System = MALME-3M multicell spheroids, viability | pIC50 = ____
7.93

Just for reference, PubChem BioAssay AID2060345 is where these values come from.
